test system: velvetleaf; test: Test A pre-/postemergence herbicide test; assay type: in vivo, Abutilon theophrasti; settings: Postemergence, 500 g ai/ha; 0 to 100 scale (0 no effect, 100 complete control)
measured endpoint: Plant response rating, Velvetleaf
In your answer, state the number alone without any accompanying words.

Solved cases (5 shown):
Measured Plant response rating, Velvetleaf, Cc1cccc(NC(=O)C2C(=O)NCC2c2ccc(F)c(F)c2)c1 (stereo not shown) [Compound 56] : 0

Measured Plant response rating, Velvetleaf, O=C1NCC(c2ccc(F)c(C(F)(F)F)c2)C1C(=O)Nc1cccc(F)c1F (racemic) [Compound 77] : 40

Measured Plant response rating, Velvetleaf, O=C1NCC(c2ccc(Cl)c(Cl)c2)C1C(=O)Nc1ccccc1F (racemic) [Compound 14] : 90

Measured Plant response rating, Velvetleaf, O=C1NCC(c2ccc(Cl)cc2Cl)C1C(=O)Nc1ccccc1F (racemic) [Compound 91] : 0

Measured Plant response rating, Velvetleaf, O=C1NCC(c2cc(F)c(F)c(F)c2)C1C(=O)Nc1cccc([N+](=O)[O-])c1 (stereo not shown) [Compound 49] : 0

Continuing:
Measured Plant response rating, Velvetleaf, O=C1NCC(c2ccc(OC(F)(F)F)cc2)C1C(=O)Nc1ccccc1C(F)(F)F (racemic) [Compound 258] : 0

Measured Plant response rating, Velvetleaf, O=C1NCC(c2ccc(OC(F)(F)F)cc2)C1C(=O)Nc1ccccc1F (racemic) [Compound 256] : 0

Measured Plant response rating, Velvetleaf, O=C1NCC(c2ccc(F)c(F)c2)C1C(=O)Nc1cccc(F)c1F (racemic) [Compound 101] : 70

Measured Plant response rating, Velvetleaf, O=C1NCC(c2ccsc2)C1C(=O)Nc1ccccc1F (racemic) [Compound 29] : 0

Measured Plant response rating, Velvetleaf, O=C1NCC(c2ccc(F)c(F)c2)C1C(=O)Nc1cccc[n+]1[O-] (stereo not shown) [Compound 47] : 0

* * *

Recorded Plant response rating, Morningglory for the following compounds
system: morningglory; test: Test C pre-/postemergence herbicide test; assay type: in vivo, Ipomoea coccinea; details: Preemergence, 125 g ai/ha; scale 0 to 100 (0 no effect, 100 complete control)
Text: […]
In your answer, state the number alone without any accompanying words.

Solved cases (4 shown):
Measured Plant response rating, Morningglory, O=C1NCC(c2ccc(F)c(C(F)(F)F)c2)C1C(=O)Nc1cccc(F)c1F (racemic) [Compound 77] : 0

Measured Plant response rating, Morningglory, O=C1NCCC1C(=O)N(c1ccc(F)c(F)c1)c1ccccc1F (stereo not drawn) [Compound 5] : 0

Measured Plant response rating, Morningglory, O=C1NCC(c2ccc(C(F)(F)F)cc2)C1C(=O)Nc1ccccc1F (stereo not drawn) [Compound 231] : 0

Measured Plant response rating, Morningglory, O=C1NCC(c2cccc(OC(F)F)c2)C1C(=O)Nc1cccc(F)c1F (stereo not drawn) [Compound 224] : 5

Continuing:
Measured Plant response rating, Morningglory, O=C1NCC(c2ccc(C(F)(F)F)cc2)C1C(=O)Nc1cccc(F)c1F (racemic) [Compound 202] : 25

Measured Plant response rating, Morningglory, O=C1NCC(c2ccc(Cl)cc2)C1C(=O)Nc1cccc(F)c1F (stereo not drawn) [Compound 218] : 25

* * *

system: lambsquarters; test: Test C pre-/postemergence herbicide test; format: in vivo, Chenopodium album; details: Postemergence; 250 g ai/ha; scale 0 to 100 (0 no effect, 100 complete control)
// assign T if Plant response rating, Lambsquarters falls strictly below 70, else F (ties count as F)

Q. Does the reported Plant response rating, Lambsquarters of the following compound sit strictly below 70? CN1CC(c2ccc(F)c(F)c2)C(C(=O)Nc2cccc(F)c2F)C1=O (stereo not shown) [Compound 303]
A. F

Q. Does the reported Plant response rating, Lambsquarters of the following compound sit strictly below 70? Cc1c(F)cccc1NC(=O)C1C(=O)NCC1c1ccc(F)c(F)c1 (racemic) [Compound 106]
A. T

Q. Does the reported Plant response rating, Lambsquarters of the following compound sit strictly below 70? CN1CC(c2cccc(C(F)(F)F)c2)C(C(=O)Nc2cccc(F)c2F)C1=O (stereo not shown) [Compound 305]
A. T

Q. Does the reported Plant response rating, Lambsquarters of the following compound sit strictly below 70? O=C1NCC(c2ccc(C(F)(F)F)cc2)C1C(=O)Nc1ccccc1F (stereo not shown) [Compound 79]
A. F

Q. Does the reported Plant response rating, Lambsquarters of the following compound sit strictly below 70? O=C1NCC(c2ccc(F)c(F)c2)C1C(=O)Nc1ccc(F)c(F)c1F (stereo not shown) [Compound 346]
A. T

Continuing:
Q. Does the reported Plant response rating, Lambsquarters of the following compound sit strictly below 70? O=C1NC[C@H](c2cccc(C(F)(F)F)c2)[C@H]1C(=O)Nc1ccccc1F [Compound 204]
A. T
